Would you kindly list % increase compared with control, Internode 2 for each of these compounds?
Tested on: Phaseolus vulgaris L. cv. Pinto
Method Summary: Bean second and third internode elongation bioassay (glass house)
Format: in vivo
Condition Parameters: 6 μg per plant, applied through wound site, scored after 10 days, 8 replicates
Give bare numbers, in %.

Query: Query for Phaseolus vulgaris L. cv. Pinto: what % increase compared with control, Internode 2 does the record show for CC(C)[C@@H](C)[C@@H](O)[C@H](O)[C@@H](C)[C@H]1CC[C@H]2[C@@H]3COC(=O)[C@H]4C[C@H](O)[C@H](O)C[C@]4(C)[C@H]3CC[C@]12C [Standard, 24-epi-brassinolide, reference compound] ?
Reply: 150

Query: # get_value(readout= % increase compared with control, Internode 2, system= Phaseolus vulgaris L. cv. Pinto) for C[C@]12CCC3[C@@H](CC(F)(F)[C@H]4C[C@H](O)CC[C@]34C)C1CC[C@@H]2O (stereo partly drawn) [Compound P2, 6α,6β-difluoro-3α,17β-diol-5α-androstan]
Reply: 0

Query: Value wanted: % increase compared with control, Internode 2 (Phaseolus vulgaris L. cv. Pinto) of entry C[C@]12CCC3[C@@H](CC(F)(F)[C@@]4(F)C[C@H](O)CC[C@]34C)C1CC[C@@H]2O (stereo partly shown) [Compound P1]
Reply: 0

---
Query: Hello, I am looking for reported % increase compared with control, Internode 2 with Phaseolus vulgaris L. cv. Pinto for `CO[C@]12C[C@H](O)CC[C@]1(C)[C@H]1CC[C@]3(C)[C@@H](O)CC[C@H]3[C@@H]1CC2=O` . Could you help?
Reply: 13

Recorded values, source patent US20140045697A1.
